- system-tested: hGALK1m (Homo sapiens, UniProt P51570, E253A/K252A)
- Construct: made in house; host or cells: E. coli HMS174
- Sequence (P51570 whole entry K252A/E253A): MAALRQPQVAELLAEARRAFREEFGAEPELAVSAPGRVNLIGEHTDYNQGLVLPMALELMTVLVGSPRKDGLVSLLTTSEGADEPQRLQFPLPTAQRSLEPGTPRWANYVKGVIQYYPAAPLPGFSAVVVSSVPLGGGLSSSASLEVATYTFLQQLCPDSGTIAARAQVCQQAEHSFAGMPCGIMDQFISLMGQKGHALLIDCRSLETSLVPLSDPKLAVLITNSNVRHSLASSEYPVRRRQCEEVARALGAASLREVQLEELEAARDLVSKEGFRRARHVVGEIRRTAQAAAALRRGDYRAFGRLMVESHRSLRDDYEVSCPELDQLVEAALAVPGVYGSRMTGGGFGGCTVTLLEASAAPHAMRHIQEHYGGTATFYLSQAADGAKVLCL
- protocol-description: in vitro hGALK1 activity assay of the structure-based optimisation (Example 12, Tables 17-20)
- Assay type: biochemical
- test-settings: Tables 18-19 and text of Example 12
metric: IC50

# value of IC50, hGALK1m (Homo sapiens, UniProt P51570, E253A/K252A), item CC1=C(C(=O)Nc2cc(C(=O)O)ccn2)C(c2cccc(S(N)(=O)=O)c2)N=C(Nc2nc3ccc(F)cc3o2)N1 (stereo not drawn) = > 15 µM

# value of IC50, hGALK1m (Homo sapiens, UniProt P51570, E253A/K252A), item CC1=C(C(=O)Nc2cc(C(=O)O)ccn2)C(c2ccccc2Cl)N=C(Nc2nc3cccc(OC(F)(F)F)c3o2)N1 (stereo not drawn) = > 15 µM

# value of IC50, hGALK1m (Homo sapiens, UniProt P51570, E253A/K252A), item CC1=C(C(=O)Nc2cc(C(=O)O)ccn2)C(c2ccccc2Cl)N=C(Nc2nc3cccc(C(F)(F)F)c3o2)N1 (stereo not drawn) = > 15 µM

# value of IC50, hGALK1m (Homo sapiens, UniProt P51570, E253A/K252A), item CC1=C(C(=O)Nc2cc(C(=O)O)ccn2)C(c2cccc(C(F)(F)F)c2)N=C(Nc2nc3ccc(F)cc3o2)N1 (stereo not drawn) = > 15 µM

# value of IC50, hGALK1m (Homo sapiens, UniProt P51570, E253A/K252A), item CC1=C(C(=O)Nc2cc(C(=O)O)ccn2)C(c2ccccc2Cl)N=C(Nc2nc3cc(Cl)ccc3o2)N1 (stereo not drawn) = 1.7 µM

# value of IC50, hGALK1m (Homo sapiens, UniProt P51570, E253A/K252A), item COc1cccc2nc(NC3=NC(c4ccccc4Cl)C(C(=O)Nc4cc(C(=O)O)ccn4)=C(C)N3)oc12 (stereo not drawn) = > 15 µM

* * *

- system-tested: recombinant mouse GALK1 (Mus musculus, UniProt Q9R0N0)
- Sequence (Q9R0N0 whole entry): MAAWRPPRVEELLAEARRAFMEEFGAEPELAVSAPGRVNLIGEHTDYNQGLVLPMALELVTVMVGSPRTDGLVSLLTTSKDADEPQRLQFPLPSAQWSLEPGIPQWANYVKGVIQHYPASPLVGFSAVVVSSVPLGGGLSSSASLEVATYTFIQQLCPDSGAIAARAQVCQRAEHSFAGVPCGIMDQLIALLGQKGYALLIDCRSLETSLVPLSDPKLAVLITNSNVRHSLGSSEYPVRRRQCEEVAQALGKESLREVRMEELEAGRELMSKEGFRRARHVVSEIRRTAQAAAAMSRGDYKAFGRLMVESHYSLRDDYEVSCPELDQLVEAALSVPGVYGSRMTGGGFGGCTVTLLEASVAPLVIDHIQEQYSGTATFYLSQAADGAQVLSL
- protocol-description: mGALK1 biochemical activity assay (Kinase-Glo Plus, ATP depletion)
- test-settings: Tables 2-15; 35 μM ATP, 100 μM galactose, 1 h; bracketed figure after some values is undefined and not reported; read-out: mGALK IC50
metric: IC50 (µM)
Write the value in µM as a bare number.

// IC50 lookup, compound = CC1=C(C(=O)Nc2cc(C(=O)O)ccn2)C(c2ccc(C#N)cc2Cl)N=C(Nc2nc3ccc(F)cc3o2)N1 (stereo not drawn) [Compound 66] , result: 3.85

// IC50 lookup, compound = COC(=O)c1cnc(NC(=O)C2=C(C)NC(Nc3nc4ccccc4o3)=NC2c2ccccc2Cl)s1 (stereo not drawn) [Compound 185] , result: 10.9

// IC50 lookup, compound = CC1=C(C(=O)Nc2cc(C(=O)O)ccn2)C(c2ccccc2Cl)N=C(Nc2nc3cc(Cl)ccc3o2)N1 (stereo not drawn) [Compound 9] , result: 6.11

// IC50 lookup, compound = CC1=C(C(=O)Nc2nnc(-c3cccnc3)s2)C(c2ccccc2Cl)N=C(Nc2nc3ccccc3o2)N1 (stereo not drawn) [Compound 180] , result: 9.68

// IC50 lookup, compound = CC1=C(C(=O)NCc2cnn(Cc3ccccc3)c2)C(c2ccc(C)cc2Cl)N=C(Nc2nc3cccc(N)c3o2)N1 (stereo not drawn) [Compound 114] , result: 5.44

// IC50 lookup, compound = CC1=C(C(=O)NCc2ccc(C(=O)O)cc2)C(c2ccccc2Cl)N=C(Nc2nc3ccccc3o2)N1 (stereo not drawn) [Compound 225] , result: 10.9

// IC50 lookup, compound = CC1=C(C(=O)Nc2cc(C(=O)O)ccn2)C(c2ccccc2Cl)N=C(Nc2nc3ccc(F)cc3o2)N1 (racemic) [Compound 1] , result: 4.32

// IC50 lookup, compound = CCn1ncc(CNC(=O)C2=C(C)NC(Nc3nc4ccc(F)c(N)c4o3)=NC2c2ccc(C)cc2Cl)c1F (stereo not drawn) [Compound 133] , result: 1.09

// IC50 lookup, compound = CC1=C(C(=O)Nc2cc(C(=O)O)ccn2)C(c2ccc(C)cc2Cl)N=C(Nc2nc3c(o2)CCCC3)N1 (stereo not drawn) [Compound 109] , result: 4.32

// IC50 lookup, compound = CC1=C(C(=O)Nc2cc(C(N)=O)ccn2)C(c2ccccc2Cl)N=C(Nc2nc3ccc(F)cc3o2)N1 (stereo not drawn) [Compound 38] , result: 19.3

// IC50 lookup, compound = CC1=C(C(=O)Nc2cc(C(=O)O)ccn2)[C@@H](c2ccccc2Cl)N=C(Nc2nc3ccccc3o2)N1 [Compound 209] , result: 19.3

// IC50 lookup, compound = CC1=C(C(=O)Nc2cc(C(=O)O)ccn2)C(c2ccccc2Cl)N=C(Nc2nc3cccc(C(F)(F)F)c3o2)N1 (stereo not drawn) [Compound 16] , result: 48.5

// IC50 lookup, compound = CC1=C(C(=O)Nc2cc(C(=O)O)ccn2)C(c2ccccc2Cl)N=C(Nc2nc3c(Cl)cccc3o2)N1 (stereo not drawn) [Compound 11] , result: 13.7

// IC50 lookup, compound = CC1=C(C(=O)Nc2nnc(-c3ccncc3)s2)C(c2ccccc2Cl)N=C(Nc2nc3ccccc3o2)N1 (stereo not drawn) [Compound 187] , result: 19.3

// IC50 lookup, compound = CC1=C(C(=O)Nc2nnc(C)s2)C(c2ccccc2Cl)N=C(Nc2nc3ccccc3o2)N1 (stereo not drawn) [Compound 173] , result: 10.9

// IC50 lookup, compound = CC1=C(C(=O)Nc2cc(N(C)C)ccn2)C(c2ccc(C)cc2Cl)N=C(Nc2nc3cccc(N)c3o2)N1 (stereo not drawn) [Compound 89] , result: 15.3

// IC50 lookup, compound = CC1=C(C(=O)Nc2cc(C(=O)O)ccn2)C(c2ccccc2Cl)N=C(Nc2nc3cccc([N+](=O)[O-])c3o2)N1 (stereo not drawn) [Compound 23] , result: 38.5

// IC50 lookup, compound = CC1=C(C(=O)Nc2cccnc2)C(c2ccccc2Cl)N=C(Nc2nc3ccccc3o2)N1 (stereo not drawn) [Compound 149] , result: 12.2

// IC50 lookup, compound = CC1=C(C(=O)NCc2cncn2C)C(c2ccccc2Cl)N=C(Nc2nc3ccccc3o2)N1 (stereo not drawn) [Compound 230] , result: 6.85

// IC50 lookup, compound = CC1=C(C(=O)NCc2cn(C)cn2)[C@H](c2ccccc2Cl)N=C(Nc2nc3ccccc3o2)N1 [Compound 235] , result: 4.32

// IC50 lookup, compound = COC(=O)Cc1cccc(NC(=O)C2=C(C)NC(Nc3nc4ccccc4o3)=NC2c2ccccc2Cl)c1 (stereo not drawn) [Compound 176] , result: 13.7

// IC50 lookup, compound = CC1=C(C(=O)Nc2ccccc2)C(c2ccccc2Cl)N=C(Nc2nc3ccccc3o2)N1 (stereo not drawn) [Compound 137] , result: 13.7

// IC50 lookup, compound = CC1=C(C(=O)Nc2cc(C(=O)O)ccn2)[C@@H](c2ccc(C)cc2Cl)N=C(Nc2nc3ccc(F)cc3o2)N1 [Compound 56] , result: 6.85

// IC50 lookup, compound = CC1=C(C(=O)Nc2cc(C(=O)O)ccn2)C(c2ccccc2Cl)N=C(Nc2nc3cccc(N)c3o2)N1 (racemic) [Compound 3] , result: 3.43

* * *

- protocol-description: rat microsomal stability (RLM)
- test-settings: microsomal stability half-life
metric: Metab. Stabil. (m)

// Metab. Stabil. (m) lookup, molecule = CC1=C(C(=O)Nc2ccc(C(N)=O)cc2)C(c2ccccc2Cl)N=C(Nc2nc3ccccc3o2)N1 (stereo not drawn) [Compound 181] , result: >30 m

// Metab. Stabil. (m) lookup, molecule = CC1=C(C(=O)NCc2ccc(C(=O)O)cc2)C(c2ccccc2Cl)N=C(Nc2nc3ccccc3o2)N1 (stereo not drawn) [Compound 225] , result: >30 m

// Metab. Stabil. (m) lookup, molecule = COC(=O)c1cccc(NC(=O)C2=C(C)NC(Nc3nc4ccccc4o3)=NC2c2ccccc2Cl)n1 (stereo not drawn) [Compound 197] , result: >30 m

* * *

- system-tested: recombinant human GALK1 (Homo sapiens)
- Sequence (P51570 whole entry): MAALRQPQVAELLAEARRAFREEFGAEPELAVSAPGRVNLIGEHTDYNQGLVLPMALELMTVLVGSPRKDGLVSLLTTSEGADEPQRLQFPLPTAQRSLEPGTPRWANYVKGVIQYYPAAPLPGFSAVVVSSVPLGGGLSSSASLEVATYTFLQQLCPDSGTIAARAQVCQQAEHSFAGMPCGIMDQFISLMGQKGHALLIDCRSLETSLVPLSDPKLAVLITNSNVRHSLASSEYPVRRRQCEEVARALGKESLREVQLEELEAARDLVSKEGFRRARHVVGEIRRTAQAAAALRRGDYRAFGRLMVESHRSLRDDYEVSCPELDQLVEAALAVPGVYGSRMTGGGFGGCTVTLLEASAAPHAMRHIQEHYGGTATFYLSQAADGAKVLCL
- protocol-description: hGALK1 biochemical activity assay (Kinase-Glo Plus, ATP depletion)
- test-settings: recombinant human GALK1, Kinase-Glo Plus ATP depletion; read-out: hGALK
pIC50: −log10 of the molar value.
Given measured pIC50, output YES if it is greater than or equal to 6 and NO if not.

Does pIC50 meet or surpass 6 for CC1=C(C(=O)Nc2ccc(-n3cccn3)cc2)C(c2ccccc2Cl)N=C(Nc2nc3ccccc3o2)N1 (stereo not shown) [Compound 184] ? NO

Does pIC50 meet or surpass 6 for CC1=C(C(=O)Nc2nc(CO)cs2)C(c2ccccc2Cl)N=C(Nc2nc3ccccc3o2)N1 (stereo not shown) [Compound 198] ? NO

Does pIC50 meet or surpass 6 for CC1=C(C(=O)Nc2cc(N(C)C)ccn2)C(c2ccc(C)cc2Cl)N=C(Nc2nc3ccc(F)cc3o2)N1 (stereo not shown) [Compound 90] ? NO

Does pIC50 meet or surpass 6 for CC1=C(C(=O)Nc2cccc(CN)c2)C(c2ccccc2Cl)N=C(Nc2nc3ccccc3o2)N1 (stereo not shown) [Compound 171] ? NO

Does pIC50 meet or surpass 6 for CC1=C(C(=O)NCc2cnn(C)c2)C(c2ccc(Cl)cc2Cl)N=C(Nc2nc3ccc(F)c(N)c3o2)N1 (stereo not shown) [Compound 127] ? YES

Does pIC50 meet or surpass 6 for CC1=C(C(=O)Nc2cc(N(C)C)ccn2)C(c2ccc(C)cc2Cl)N=C(Nc2nc3cccc(N)c3o2)N1 (stereo not shown) [Compound 89] ? NO

Does pIC50 meet or surpass 6 for CC1=C(C(=O)NCc2cn(C)cn2)C(c2ccccc2Cl)N=C(Nc2nc3ccc(F)cc3o2)N1 (stereo not shown) [Compound 34] ? NO

Does pIC50 meet or surpass 6 for COC(=O)c1ccc(CNC(=O)C2=C(C)NC(Nc3nc4ccccc4o3)=NC2c2ccccc2Cl)cc1 (stereo not shown) [Compound 223] ? NO

Does pIC50 meet or surpass 6 for CC1=C(C(=O)Nc2ccc(-n3cncn3)cc2)C(c2ccccc2Cl)N=C(Nc2nc3ccccc3o2)N1 (stereo not shown) [Compound 191] ? NO

Does pIC50 meet or surpass 6 for COc1ccc([C@@H]2N=C(Nc3nc4ccc(F)cc4o3)NC(C)=C2C(=O)Nc2cc(C(=O)O)ccn2)c(Cl)c1 [Compound 53] ? YES

Does pIC50 meet or surpass 6 for CC1=C(C(=O)NCc2cccc(CO)c2)C(c2ccccc2Cl)N=C(Nc2nc3ccccc3o2)N1 (stereo not shown) [Compound 227] ? NO

Does pIC50 meet or surpass 6 for CC1=C(C(=O)Nc2cc(C(=O)O)ccn2)C(c2cccc(N)c2Cl)N=C(Nc2nc3ccc(F)cc3o2)N1 (stereo not shown) [Compound 64] ? NO

Does pIC50 meet or surpass 6 for CC1=C(C(=O)Nc2cc(C(=O)O)ccn2)C(c2ccc(N3CCOCC3)cc2Cl)N=C(Nc2nc3ccc(F)cc3o2)N1 (stereo not shown) [Compound 59] ? YES

Does pIC50 meet or surpass 6 for CC1=C(C(=O)NCc2cnn(C)c2)C(c2ccc(C)cc2Cl)N=C(Nc2nc3cnccc3o2)N1 (stereo not shown) [Compound 104] ? NO

Does pIC50 meet or surpass 6 for COC(=O)c1cccc(NC(=O)C2=C(C)NC(Nc3nc4ccccc4o3)=NC2c2ccccc2Cl)n1 (stereo not shown) [Compound 197] ? NO

Does pIC50 meet or surpass 6 for CC1=C(C(=O)Nc2cc(C(=O)O)ccn2)[C@H](c2ccccc2Cl)N=C(Nc2nc3ccccc3o2)N1 [Compound 208] ? YES

Does pIC50 meet or surpass 6 for CC1=C(C(=O)Nc2cc(C(=O)O)ccn2)[C@@H](c2ccccc2Cl)N=C(Nc2nc3ccc(F)cc3o2)N1 [Compound 20] ? NO

Does pIC50 meet or surpass 6 for CC1=C(C(=O)Nc2cc(C(=O)O)ccn2)C(c2ccc(C)cc2Cl)N=C(Nc2nc3cccc(N)c3o2)N1 (racemic) [Compound 79] ? YES

Does pIC50 meet or surpass 6 for CC1=C(C(=O)Nc2cc(C(=O)O)ccn2)[C@H](c2ccc(C)cc2Cl)N=C(Nc2nc3cccc(N)c3o2)N1 [Compound 85] ? YES

Does pIC50 meet or surpass 6 for CC1=C(C(=O)Nc2ccc(O)cc2)C(c2ccccc2Cl)N=C(Nc2nc3ccccc3o2)N1 (stereo not shown) [Compound 162] ? NO

Does pIC50 meet or surpass 6 for CC1=C(C(=O)Nc2cc(CO)ccn2)C(c2ccccc2Cl)N=C(Nc2nc3ccc(F)cc3o2)N1 (stereo not shown) [Compound 37] ? NO

Does pIC50 meet or surpass 6 for CC1=C(C(=O)NCc2cnn(C)c2)C(c2ccc(C)cc2Cl)N=C(Nc2nc3cccnc3o2)N1 (stereo not shown) [Compound 107] ? NO
